Provenance of the data: paper PMC4971745

target: sialidase of influenza A virus A/PR/8/34 (H1N1) (Influenza A virus, UniProt P03468); construct: preincubated with 5 μL of the virus containing 2 enzyme units; test: biochemical
Sequence (P03468 whole entry): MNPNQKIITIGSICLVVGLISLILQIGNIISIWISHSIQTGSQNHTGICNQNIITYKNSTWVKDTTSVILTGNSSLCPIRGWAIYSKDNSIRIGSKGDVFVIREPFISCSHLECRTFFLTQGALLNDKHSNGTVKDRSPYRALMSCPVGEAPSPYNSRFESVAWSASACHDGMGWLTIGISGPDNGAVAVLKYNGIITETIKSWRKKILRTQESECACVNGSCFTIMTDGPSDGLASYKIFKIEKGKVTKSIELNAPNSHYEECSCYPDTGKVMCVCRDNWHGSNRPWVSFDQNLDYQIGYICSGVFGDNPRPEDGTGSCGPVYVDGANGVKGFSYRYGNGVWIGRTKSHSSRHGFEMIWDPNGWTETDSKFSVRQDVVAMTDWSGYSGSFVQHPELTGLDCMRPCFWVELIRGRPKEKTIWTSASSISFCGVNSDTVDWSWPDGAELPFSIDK
Quantity Kind: pIC50
pIC50 field: float, defined as -log10 of concentration (mol/L).

Compound: CC(=O)N[C@@H]1[C@@H]([C@H](O)[C@H](O)CNC(=O)C(C)(C)C)OC(C(=O)O)=C[C@H]1O
pIC50: 4.11
//
Compound: CCCC(=O)NC[C@@H](O)[C@@H](O)[C@H]1OC(C(=O)O)=C[C@@H](O)[C@@H]1NC(C)=O
pIC50: 4.01
//
Compound: CCC(CC)C(=O)NC[C@@H](O)[C@@H](O)[C@@H]1OC(C(=O)O)=C[C@H](O)[C@H]1NC(C)=O
pIC50: 3.16
//
Compound: CCCCC(=O)NC[C@@H](O)[C@@H](O)[C@H]1OC(C(=O)O)=C[C@@H](O)[C@@H]1NC(C)=O
pIC50: 4.47
//
Compound: CCC(C)C(=O)NC[C@@H](O)[C@@H](O)[C@@H]1OC(C(=O)O)=C[C@H](O)[C@H]1NC(C)=O (stereo partly shown)
pIC50: 4.23

Prompt line: Given the entry CC(=O)N[C@@H]1[C@@H]([C@H](O)[C@H](O)CNC(=O)C2CCCC2)OC(C(=O)O)=C[C@H]1O , what pIC50 was observed with sialidase of influenza A virus A/PR/8/34 (H1N1) (Influenza A virus, UniProt P03468)?
Response line: 3.07

====

tested on: sialidase of influenza A virus A/Duck/313/78 (H5N3); assay type: biochemical; settings: pH 6; read-out: Viral sialidase inhibition (IC50) H5N3
pIC50: −log10 of the molar value.
// pIC50 lookup, one value per entry

Compound: CC(=O)N[C@H]1[C@H]([C@H](O)[C@H](O)CO)OC(C(=O)O)=C[C@@H]1O [DANA, reference compound]
pIC50: 4.96

Compound: CCC(C)C(=O)NC[C@@H](O)[C@@H](O)[C@@H]1OC(C(=O)O)=C[C@H](O)[C@H]1NC(C)=O (stereo partly drawn)
pIC50: < 3.00

Compound: CC(=O)N[C@@H]1[C@@H]([C@H](O)[C@H](O)CNC(=O)C(C)C)OC(C(=O)O)=C[C@H]1O
pIC50: < 3.00

Compound: CC(=O)N[C@@H]1[C@@H]([C@H](O)[C@H](O)CNC(=O)C2CCCC2)OC(C(=O)O)=C[C@H]1O
pIC50: < 3.00

Prompt line: Form field - read-out: pIC50; system: sialidase of influenza A virus A/Duck/313/78 (H5N3); submitted item: CC(=O)NC[C@@H](O)[C@@H](O)[C@H]1OC(C(=O)O)=C[C@@H](O)[C@@H]1NC(C)=O
Response line: 4.01

Prompt line: Here is the next compound: CC(=O)N[C@@H]1[C@@H]([C@H](O)[C@H](O)CNC(=O)c2ccccc2)OC(C(=O)O)=C[C@H]1O
Response line: < 3.00

====

target: sialidase of influenza A virus A/PR/8/34 (H1N1) (Influenza A virus); construct: preincubated with 5 μL of the virus containing 2 enzyme units; assay: biochemical
# reported IC50; entries follow
Express it in µM; write the number only.

Smiles Repr: CC(=O)NC[C@@H](O)[C@@H](O)[C@H]1OC(C(=O)O)=C[C@@H](O)[C@@H]1NC(C)=O
IC50 [µM]: 22
--
Smiles Repr: CC(=O)N[C@@H]1[C@@H]([C@H](O)[C@H](O)CNC(=O)C2CC2)OC(C(=O)O)=C[C@H]1O
IC50 [µM]: 9

# evaluate next
Prompt line: Look at this compound and give its reported IC50. CC(=O)N[C@@H]1[C@@H]([C@H](O)[C@H](O)CNC(=O)C(C)C)OC(C(=O)O)=C[C@H]1O
Response line: 54
